Target or test system: Aurora-C (Homo sapiens)
Construct: made in house; host or cells: HEK293 (transiently transfected)
Sequence (Q9UQB9 1-309): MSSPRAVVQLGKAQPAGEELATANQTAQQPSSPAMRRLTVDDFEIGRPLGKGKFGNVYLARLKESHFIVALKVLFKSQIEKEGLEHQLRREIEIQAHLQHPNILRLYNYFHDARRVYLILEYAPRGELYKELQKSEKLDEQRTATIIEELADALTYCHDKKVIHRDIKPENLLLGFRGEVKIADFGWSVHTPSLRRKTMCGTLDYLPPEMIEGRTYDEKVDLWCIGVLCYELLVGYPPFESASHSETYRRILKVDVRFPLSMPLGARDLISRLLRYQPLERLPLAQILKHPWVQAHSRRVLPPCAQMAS
Measurement notes: Aurora-C kinase assay
Format: biochemical
Condition info: 3 μM ATP, 22° C., 90 min
Assay readout: IC50 (nM)

Would you please look over these solved cases?
>>> df
                                   compound  assay_readout  value_unit  number
0  CCOC(=O)N=S(C)(=O)c1ccc2cc1NCCCCNc1nc(ncc1Br)N2 (single isomer, unassigned) [Example 3]           IC50          nM      69
1  CCOC(=O)N=S(C)(=O)c1ccc2cc1NCCCCNc1nc(ncc1I)N2 (racemic)           IC50          nM      24

(1) CCOC(=O)N=S(C)(=O)c1ccc2cc1NCCCCNc1nc(ncc1Br)N2 (racemic) [Example 1]
(2) C[Si](C)(C)CCS(=O)(=O)N=S(C)(=O)c1ccc2cc1OCCCCNc1nc(ncc1Br)N2 (racemic)
(3) CCOC(=O)N=S(C)(=O)c1ccc2cc1NCCCCNc1nc(ncc1Br)N2 (single isomer, unassigned) [Example 2]
(4) CCCS(=O)(=O)N=S(C)(=O)c1ccc2cc1NCCCCNc1nc(ncc1Br)N2 (racemic)
Hi! Can you put these in order of IC50, lowest number first? # output: labels, in the requested order
3, 1, 4, 2

Reference source for all entries: patent US20070191393A1
